Assay: Upregulation of procollagen level in neonatal HDF cell conditioned media at 20 uM incubated for 72 hrs by Western blot analysis relative to control
Format: functional, Homo sapiens, NHDF
Peptide text beside a SMILES is read from it.
Some molecules, each annotated with its measured Activity.
Give just the number in %; leave the unit off.

Prompt: Assign Activity to the following record: CC(=O)N[C@@H](CCCCN)C(=O)N[C@H](C(=O)N[C@H](C(=O)N[C@@H](CC(N)=O)C(N)=O)C(C)C)C(C)C
Response: 87

Prompt: Assign Activity to the following record: CC(=O)N[C@H](C(=O)N[C@@H](CC(N)=O)C(=O)N1CCC[C@H]1C(=O)N[C@H](C(N)=O)[C@@H](C)O)C(C)C (Ac-VNPT-NH2)
Response: 48

Prompt: Assign Activity to the following record: CC(=O)N1CCC[C@H]1C(=O)N[C@H](C(=O)N[C@@H](CCC(N)=O)C(=O)N[C@@H](CCCCN)C(N)=O)[C@@H](C)O (Ac-PTQK-NH2)
Response: 31

Prompt: Assign Activity to the following record: CSCC[C@H](NC(C)=O)C(=O)NCC(=O)N[C@@H](CCCCN)C(=O)N[C@H](C(N)=O)C(C)C (Ac-MGKV-NH2)
Response: 116
